# growth per record follows
# System: SR leukemia
# Test details: NCI-60 one-dose screen, 48 h (100 = growth as untreated, 0 = no growth, -100 = all killed)
# Condition details: 10 µM unless noted
This is part of a sample that, as a whole, favours compounds with a hit. Of some 83,000 tested, about 20% had one in any assay.
Answer with a number only, understood to be in %.

# Compound, Reported metric, Reported value
measured = [
    ("C=C(CNCCc1ccc(O)cc1)[C@@H]1CC[C@]2(CO)CC[C@]3(C)[C@H](CC[C@@H]4[C@@]5(C)CCC(NCCO)C(C)(C)[C@@H]5CC[C@]43C)[C@@H]12 (some centres not stated)", "growth", -42.3),
    ("COc1cccc(/C=C/C(=O)c2cc3c(N)c(C(=O)Nc4ccccc4)sc3nc2C)c1", "growth", 10.8),
    ("COc1ccc(C2=Nc3c/c(=C\\c4c(O)[nH]c5ccc(Cl)cc45)ccc3=N2)cc1", "growth", 2.44),
    ("CN1CCN(c2ccc(NC(=O)c3cncnc3Nc3ccc(OCc4ccccn4)c(Cl)c3)cc2)CC1", "growth", 4.59),
    ("Cc1cc(Cl)ccc1NC(=O)c1cc2ccccc2cc1O", "growth", 3.8),
]

Look up growth with SR leukemia for this compound: O=C(NCc1ccccc1)Nc1ccccc1CNc1nc(Nc2ccc(OCCN3CCCC3)cc2)ncc1Cl
7.02

Look up growth with SR leukemia for this compound: N#Cc1cnc(NCCc2ccncc2)nc1-n1cnc2ccccc21
35.4

Look up growth with SR leukemia for this compound: C=CCn1cc(-c2nc3ccccc3s2)c2cc(-c3ccc4c5c(cccc35)C(=O)N(N)C4=O)ccc21
89.7

Look up growth with SR leukemia for this compound: O=C1Nc2ccc(Br)cc2/C1=N/c1n[nH]c(=S)s1
83.5

Look up growth with SR leukemia for this compound: Clc1ccc2c(c1)N(c1ncnc3ccc(-c4cnc5[nH]ncc5c4)cc13)CC2
24.3

Look up growth with SR leukemia for this compound: COc1ccccc1Nc1nc2c(s1)C1=CC[C@H]3[C@@H]4CC[C@H]([C@H](C)CCCC(C)C)[C@@]4(C)CC[C@@H]3[C@@]1(C)CC2
108

----------
# Tested on: NCI-H460 lung
# Test details: NCI-60 one-dose screen, 48 h (100 = growth as untreated, 0 = no growth, -100 = all killed)
# Condition details: 10 µM unless noted
Compounds without any hit were thinned out: in the full panel of roughly 83,000, 20% have a hit.
Reported metric: growth (%)
Answer with a number only, understood to be in %.

Known results for compounds:
# Molecule smiles, Readout units, growth
rows = [
    ("Cc1nc2c(=O)[nH]c(SCC(=O)Nc3cccc(F)c3)nc2[nH]c1=O", "%", 102),
    ("C=CCc1c(O)c(C(=O)/C=C/c2ccc(Cl)cc2)c(OC)c2ccoc12", "%", 49.8),
    ("CCNc1nc(-c2ccc(Cl)c(OC)c2)c(-c2ccnc(NCCCNS(=O)(=O)c3ccc(Cl)cc3)n2)s1", "%", 63.7),
]

Please look up its growth: O=C(c1ccc(-c2nc(CSc3nc4ccccc4s3)no2)cc1)N1CCSCC1
69.6

Please look up its growth: CCOC(=O)CSc1ncnc2c1c(-c1ccccc1)c(-c1ccccc1)n2-c1ccc(C)cc1
76.6

Please look up its growth: COc1ccc(NC(=O)c2sc3nc(C)c(C(=O)/C=C/c4cccc(OC)c4)cc3c2N)cc1
-7.38

Please look up its growth: c1cnc2[nH]cc(-c3csc(-c4cn(CCCN5CCOCC5)c5ccccc45)n3)c2c1
45.4

Please look up its growth: C=C(C)[C@@H]1CC[C@]2(C(=O)NCCNCCN)CC[C@]3(C)[C@H](CC[C@@H]4[C@@]5(C)C/C(=C/c6ccncc6)C(=O)C(C)(C)[C@@H]5CC[C@]43C)[C@@H]12
99.2
